Catalogue of inhibition readings, one per entry.
# procedure_details: blockers of RIG-like receptor reporter activation – cell-based, Sendai virus stimulus, luciferase, 10K MLSCN set, TLR/RLR signaling modifier project, primary screen (AID 602276);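 also: firefly luciferase from ISG56 promoter only with Renilla not read in this screen; 0% = Sendai virus plus DMSO and 100% = medium plus DMSO without virus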
# applied_conditions: HEK293 RL24 IRF3 luciferase reporter, at 10 µM, stronger effect = higher value

molecule | inhibition [%]
CC(=O)c1cn(CC(=O)NCc2ccc3c(c2)OCO3)c2ccccc12 | 11.9
Cn1nnnc1SCC(=O)N1CCN(c2cccc(Cl)c2)CC1 | 7.81
COc1ccc(CN(C(=O)c2cccs2)c2nccs2)cc1OC | -2.48
CN(CCc1ccccn1)c1ncnc2[nH]ncc12 | -24.6
COc1ccc2[nH]c(=O)c(CN(C(=O)c3cccnc3)c3ccccc3OC)cc2c1 | 12.5
O=C(Cn1cnc2c(cnn2-c2ccccc2)c1=O)NCCc1ccccc1 | 10.8
Cc1sc(NC(=O)CSc2nc(N)n(CC(=O)c3ccccc3)n2)c(C#N)c1C | -14.5
Cc1cccc(Nc2ncc3c(n2)CC(c2ccco2)CC3=O)c1 (stereo unspecified) | -2.61
Fc1ccc(-c2csc3nnc(SCc4cccnc4)n23)cc1 | 1.55
O=C(O)[C@@H]1CCCN1c1ncnc2sc3c(c12)CCC3 | 17.9
COc1ccc(OC)c(NC(=O)CCNS(=O)(=O)c2cccs2)c1 | 14.1

###

# procedure_details: blockers of RIG-like receptor reporter activation – cell-based, Sendai virus stimulus, luciferase, 10K MLSCN set, TLR/RLR signaling modifier project, primary screen (AID 602276);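 also: firefly luciferase from ISG56 promoter only with Renilla not read in this screen; 0% = Sendai virus plus DMSO and 100% = medium plus DMSO without virus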
# applied_conditions: HEK293 RL24 IRF3 luciferase reporter, at 10 µM, stronger effect = higher value

compound | inhibition / %
COc1ccc(CNc2oc(-c3ccccc3)nc2C#N)cc1 | -29.8
COc1ccc(S(=O)(=O)N2CCOCC2)cc1C(=O)Nc1cc(C)on1 | -8.66
Cc1ccccc1-n1c(Cn2c(=O)sc3ccccc32)nnc1SCC(N)=O | 16.4
O=c1c(CN2CCN(Cc3ccccc3)CC2)coc2ccc(Cl)cc12 | -2.78
COc1cc(-c2nnc(SCc3c(F)cccc3Cl)o2)cc(OC)c1OC | -11.9
O=C(CSc1ccc2nnc(-c3ccccc3)n2n1)N1CCN(c2ccccc2)CC1 | -9.77
Cc1ccc(C)c(-n2c(CNC(=O)c3ccco3)nnc2SCC(=O)Nc2nnc(C)s2)c1 | 14.2
COc1ccc(-c2noc(CN(C(=O)C(C)(C)C)C(C)C)n2)cc1 | -16.3
CCOC(=O)C(C#N)C(c1cccnc1)c1c(C)[nH][nH]c1=O (stereo not given) | 6.49
COc1ccc(CCNC(=O)C2CCN(C(=O)N(C)C)CC2)cc1OC | 6.71
CC(=O)NC(C)c1nc2ccccc2n1C(C)C (stereo not given) | 14.5
CCOC(=O)c1cnc(SCC)[nH]c1=O | 6.7
CC1=C(C(=O)OC2CCCCC2)C(c2cccnc2)n2ncnc2N1 (stereo not given) | 7.24
c1ccc(CNc2c3c(nc4ncnn24)CCCC3)nc1 | 15.7
CCOC(=O)c1nnn(CC(=O)Nc2cccc(F)c2)c1C(=O)OCC | 3.63
CCOc1ccc(Cc2nn[nH]n2)cc1 | 9.13
Cc1c(C(=O)NCc2cccnc2)oc2ccc(S(=O)(=O)N3CCCCC3)cc12 | 19.5
Cc1ccc(NC(=O)CSc2nnc(CNC(=O)c3c(F)cccc3Cl)o2)cc1 | 1.9
COc1ccc(N2CCN(Cc3cc(=O)oc4cc(C)c(Cl)c(C)c34)CC2)cc1 | 17.9
CCc1ccc(N2CC34C=CC(O3)C(C(=O)OC)C4C2=O)cc1 (stereo not given) | 7.96
COc1cc(C(=O)Nc2cc(C)ccn2)cc(OC)c1OC | -4.57
CCc1cc2c(CN3CCN(CCO)CC3)cc(=O)oc2cc1O | 17.8
COc1ccccc1NC(=O)c1cc2n(n1)C(C(F)(F)F)CC(c1ccc3c(c1)OCO3)N2 (stereo not given) | -5.6
CCOc1ccc(-c2nc(C#N)c(NCc3ccc4c(c3)OCO4)o2)cc1 | -4.94
CSc1nnc(-c2ccc(NC(=O)CCc3ccccc3)cc2)n1C | -3.25
CC(=O)N1CCN(c2ccc(S(=O)(=O)N3CCCCC3)cn2)CC1 | 6.79
CCOC(=O)c1ccc(NC(=O)Cn2cc3c(n2)CCC(C)C3)cc1 (stereo not given) | 12.5
Cc1[nH]c2ccccc2c(=O)c1CN1CCCCC1 | 6.83
Cc1cccc(NC(=O)CC(C)(C)C)c1 | 10.5
COCCSc1nnc(NC(=O)Cc2ccccc2OC)s1 | 16.6
O=c1[nH]c(=O)n(C2CCCCCC2)c(O)c1C=NCc1ccc(F)cc1 | 14.6
COc1ccc(C2C(C#N)=C(N)OC3=C2C(=O)CC(C)C3)c(OC)c1OC (stereo not given) | -3.81
Cc1cc(C)nc(N2CCC(C(=O)NC3CCCCCC3)CC2)n1 | 16.4
CN1CCN(C(c2cccc(C(F)(F)F)c2)c2nnnn2C(C)(C)C)CC1 (stereo not given) | 19.1
O=C(NC12CC3CC(CC(C3)C1)C2)c1cncc(O)c1 | 7.2
NC(=O)c1cccc(S(=O)(=O)N2CCCCC2)c1 | 4.76
CC(C)(C)SCCNC(=O)COc1ccc(Cl)cc1 | -15.2
CC1=C(C(=O)OCc2ccccc2)C(c2ccc(C)o2)C2=C(CCCC2=O)N1 (stereo not given) | 2.43
O=S(=O)(Nc1ccc(Cc2ccncc2)cc1)N1CCCC1 | 1.91
CCOc1ccc2[nH]c(=O)c(C(c3nnnn3CC3CCCO3)N3CCc4ccccc4C3)cc2c1 (stereo not given) | 20.7
CC1(C)Cc2cccc(OCC(O)CN3CCN(c4ccccn4)CC3)c2O1 (stereo not given) | -6.85
O=C(Nc1ccc(Br)c2cccnc12)c1ccc(Cn2cc(Cl)cn2)o1 | -9.8
Cc1c(C(=O)OC2CCCCC2)[nH]c2c1C(=O)CC(C)(C)C2 | -3
Cc1nn(-c2ccc(Cl)cc2)c2sc(C(=O)N3CCN(c4ccccn4)CC3)cc12 | 9.58
CCOc1ccccc1N(CC(=O)NC1CCCC1)C(=O)CCCC(=O)Nc1ccccn1 | 5.25

FYI, the data here is from PubChem BioAssay.
